Tested on: HCT-15 colon
protocol.details: NCI-60 one-dose screen, 48 h (100 = growth as untreated, 0 = no growth, -100 = all killed)
test.settings: 10 µM unless noted
About 83,000 compounds went through this panel and 20% of them were active in at least one assay; those are over-represented in the sample as a whole.
Note to self: use t only for growth readings below 50%; a reading exactly at 50% still gets f.

As a guide, the following entries are already answered.
compound	cat
O=C(COc1ccc(/C=C2\CSc3ccccc3C2=O)cc1)c1ccc(Cl)cc1	f
CCCCC(=O)N/N=C/c1cc(I)cc(I)c1O	t
CCCCc1ccc(NC(=O)C(F)(F)F)cc1	f
CCC(C)[C@H]1O[C@]2(CC[C@@H]1C)C[C@@H]1C[C@@H](C/C=C(\C)[C@@H](OC3C[C@H](OC)C(O[C@H]4C[C@H](OC)[C@@H](O)[C@H](C)O4)[C@H](C)O3)[C@@H](C)/C=C/C=C3\CO[C@@H]4[C@H](O)C(C)=C[C@@H](C(=O)O1)[C@]34O)O2 (some centres undefined)	t
Cc1ccc(N(CSc2ccc(Cl)cc2)CSc2ccc(Cl)cc2)cc1	f

Query :: Is growth strictly under 50% for the entry COc1cc2cc(Oc3ccc(NC(=O)Nc4cccc(C(F)(F)F)c4)cc3)c(C)nc2cc1OCCN1CCCCC1 ?
Result :: t

Query :: Input CCCCCCCCCCCC(=O)[O][Sn]([CH2]CCC)([CH2]CCC)[CH2]CCC ; condition: growth strictly below 50%. Does it hold?
Result :: t

Query :: Confirm or reject: growth of CCOC(=O)c1cc2c(n(C)c1=O)-c1cnn(-c3ccc(OC)cc3)c1CC2 lies strictly below 50%
Result :: f

----------
growth values, listed per item
Tested on: NCI-H322M lung
protocol.details: NCI-60 one-dose screen, 48 h (100 = growth as untreated, 0 = no growth, -100 = all killed)
test.settings: 10 µM unless noted
This is part of a sample that, as a whole, favours compounds with a hit. Of some 83,000 tested, about 20% had one in any assay.
Answer in %, number only, no unit symbol.

compound	system	test.result
Oc1ccc(Cl)cc1CNc1nc2ccccc2[nH]1	NCI-H322M lung	101

Kindly note the recorded growth for COc1ccc(-c2nn(-c3ccc(NC(=O)c4ccc(Cl)c(Cl)c4)cc3)cc2-c2ccncc2)cc1Cl , which is 69.1

Data point: O=C(c1ccc2ncc(-c3nc(NC4CC4)ncc3F)n2c1)N1CCOCC1 ; growth = 15.4

Notebook: CN(C)C(=S)SCN1C(=O)c2ccc([N+](=O)[O-])cc2S1(=O)=O , growth read as 99

Lab note: measured growth of CCOC(=O)c1[nH]c2cc(Cl)ccc2c1[C@@H](C(=O)NC(C)(C)C)N(CC)C(=O)CCCCC#Cc1cccc2c1CN(C1CCC(=O)NC1=O)C2=O (stereo partly specified) was 13.5

Per the records, this compound ( Cc1ccc(C(=O)Nc2ccccc2N)cc1 ) has growth equal to 71.6

----------
Tested on: PC-3 prostate
protocol.details: NCI-60 one-dose screen, 48 h (100 = growth as untreated, 0 = no growth, -100 = all killed)
test.settings: 10 µM unless noted
Compounds without any hit were thinned out: in the full panel of roughly 83,000, 20% have a hit.
// label = rule met if growth is not less than 90%, otherwise rule not met

molecule	cat
O=C1C(N2CCOCC2)=Cc2cccc3cccc1c23	rule met
CON=C1C[C@]2(C[C@@H]3C[C@@H](C/C=C(\C)C[C@@H](C)/C=C/C=C4\CO[C@@H]5[C@H](O)C(C)=C[C@@H](C(=O)O3)[C@]45O)O2)O[C@H](/C(C)=C/C(C)C)[C@H]1C	rule not met
CN1CCn2c(c(Sc3ccc(C(=O)NO)cc3)c3ccccc32)C1=O	rule not met
Cc1nn(CC(=O)O)c2c1C(=O)CC(C)(C)C2	rule met
Cc1ccc(C)c2c1sc1nc3nc4sc5ccccc5n4c(=N)c3c(=O)n12	rule not met
O=C1C2CC3C(CC2C(=O)[N]1[Sn]([c]1ccccc1)([c]1ccccc1)[c]1ccccc1)C1(Cl)C(Cl)=C(Cl)C3(Cl)C1(Cl)Cl (centres undefined)	rule not met
CCCCc1ccc(C(O)(CCN2CC3CCC(CC3)C2)c2ccccc2)cc1 (centres undefined)	rule met
CCOC(=O)c1[nH]c2cc(Cl)ccc2c1[C@@H](C(=O)NC(C)(C)C)N(CC)C(=O)CCCCC#Cc1cccc2c1CN(C1CCC(=O)NC1=O)C2=O (some centres undefined)	rule not met
Cc1nc(NN)c([N+](=O)[O-])c(NN)n1	rule met
COc1cc(/C=C/C(=O)CC(=O)/C=C/c2cc(Br)c(OC)c(OC)c2)cc(Br)c1OC	rule met

Query :: Could you tell me if the measured growth of Clc1ccc(C2=Nc3cccc4cccc(c34)N2)cc1Cl reaches 90% or more?
Result :: rule not met

Source of measurements: PubChem BioAssay (NCI)
